Each entry below carries its recorded GI50.
system: A549; experiment: Cytotoxicity against human A549 cells after 48 hrs by WST8 assay; type: functional; conditions: A549, 48 h
Assay Metric: GI50 (µM)

| Molecule | Reported |
| --- | --- |
| C[C@H]1[C@H](C)CC[C@]2(C)CC[C@]3(C)C(=CC[C@@H]4[C@@]5(C)CC[C@H](O)C(C)(C)[C@@H]5CC[C@]43C)[C@H]12 | 10.5 |
| C/C=C(/C)C(=O)O[C@H]1[C@H](OC(=O)/C(C)=C\C)[C@]2(CO)[C@H](O)C[C@]3(C)C(=CC[C@@H]4[C@@]5(C)CC[C@H](O)C(C)(C)[C@@H]5CC[C@]43C)[C@@H]2CC1(C)C | 5.48 |
| C/C=C(/C)C(=O)O[C@H]1[C@H](OC(C)=O)[C@]2(CO)[C@H](O)C[C@]3(C)C(=CC[C@@H]4[C@@]5(C)CC[C@H](O[C@@H]6O[C@H](C(=O)O)[C@@H](O)[C@H](O[C@@H]7O[C@@H](CO)[C@H](O)[C@H]7O)[C@H]6O[C@@H]6O[C@H](CO)[C@@H](O)[C@H](O)[C@H]6O)[C@](C)(CO)[C@@H]5CC[C@]43C)[C@@H]2CC1(C)C [AESCULIOSIDE III] | 20.1 |
